System: HEI-OC1 cells
Experiment: Caspase-Glo 3/7 assay in HEI-OC1 cells treated with Cisplatin
Assay type: cell-based, mouse
Settings: Mus musculus, HEI-OC1, HEI-OC1 cells, Cisplatin 50 μM; read-out: calculated IC50 (percent protection from caspase 3/7 readout)
PARAMETER: IC50 (nM)
Numbers only here, please. The scale is nM.

Reported IC50 for CC1=C[C@]23C(=O)[C@@H](C=C(CO)[C@@H](O)[C@]2(O)[C@H]1O)[C@H]1[C@@H](C[C@H]3C)C1(C)C [Ingenol] : what is it?
1540

Cited source for all entries: patent US12661362B2
